experiment_summary: In-vivo PK of GGA oral formulations in rat
condition_label: plasma, GGA in 5% Gum Arabic+3% Hydroxypropyl Cellulose (Mn=100,000) aqueous suspension
metric: Tmax (h)
Quick note: give the figure in h, leave out the unit.

get_value(item= "CC(=O)CC/C=C(\C)CC/C=C(\C)CC/C=C(\C)CCC=C(C)C" , readout=Tmax) returns 5.33

----------
System: HSP70
experiment_summary: HSP70 levels in Neuro 2a cells, ELISA
Type: cell-based, mouse
condition_label: 10 nM, 48 hrs compound then 24 hrs GGTI-298
Hi there, I'd appreciate the recorded HSP70 level, ELISA signal (absence of compounds normalized as 1.00) for every entry that follows.
Write the number on its own, no unit after it.

get_value(item= "CC(C)=CCC/C(C)=C/CC/C(C)=C/COC(=S)NCCCN1CCOCC1" , readout=HSP70 level, ELISA signal (absence of compounds normalized as 1.00)) returns 1.13

get_value(item= C=CCNC(=O)OC/C=C(\C)CC/C=C(\C)CCC=C(C)C [Compound 8j, Allyl 2E, 6E-farnesyl carbamate] , readout=HSP70 level, ELISA signal (absence of compounds normalized as 1.00)) returns 1.13

get_value(item= CCC(C)NC(=O)OC/C=C(\C)CC/C=C(\C)CCC=C(C)C (centres unmarked) [Compound 8g, Sec-Butyl 2E, 6E-farnesyl carbamate] , readout=HSP70 level, ELISA signal (absence of compounds normalized as 1.00)) returns 1.17

get_value(item= "CC(C)=CCC/C(C)=C/CC/C(C)=C/COC(=S)NC1CC1" , readout=HSP70 level, ELISA signal (absence of compounds normalized as 1.00)) returns 1.05

get_value(item= "CC(C)=CCC/C(C)=C/CC/C(C)=C/CC/C(C)=C/COC(=O)Nc1ccc(C(F)(F)F)cc1" , readout=HSP70 level, ELISA signal (absence of compounds normalized as 1.00)) returns 1.01

These measurements were taken from patent US20150025077A1.
